Experiment: StAR promoter reporter inhibitors, counter-screen for LRH-1 inverse agonist project, cell-based, luminescence, high throughput (AID 651611)
Conditions: StAR promoter luciferase reporter counterscreen, at 3.6 µM
Active and inactive are the calls of the source. No stated cut-off is given here; in the data, active means inhibition above about 28%; inactive means the rest.
Use one of these outcomes when replying: active, inactive

Previously resolved entries follow.
[
  {
    "compound": "CCS(=O)(=O)Nc1cccc(-c2ccc3nnc(-c4cccnc4)n3n2)c1",
    "assignedClass": "inactive"
  },
  {
    "compound": "CC1(C)CC(N2CCCC2)=CC(=[N+]2CCCC2)C1",
    "assignedClass": "inactive"
  },
  {
    "compound": "CCN(CC)c1nc(-c2ccccn2)nc(-c2ccccc2)c1C#N",
    "assignedClass": "inactive"
  },
  {
    "compound": "c1ccc(-c2nc(NCc3cccnc3)c3oc4ccccc4c3n2)cc1",
    "assignedClass": "inactive"
  },
  {
    "compound": "CCn1c(SCC(=O)Nc2ccc(Cl)cc2)nnc1C1CC1",
    "assignedClass": "inactive"
  }
]

### Prompt Could you check what this test reported for `COc1ccc(N=C(NN)c2ccc3ccccc3n2)cc1` ?
### Response inactive

### Prompt Could you check what this test reported for `COc1ccc(CCNC(=O)CN2C(=O)NC3(CCCCC3)C2=O)cc1` ?
### Response inactive

### Prompt Could you check what this test reported for `S=C(Nc1ccc(Br)cc1)Nc1ccc2c(c1)OCCO2` ?
### Response inactive
